# credit: patent US10562912B2

system: LNCaP; assay: Cell growth inhibition assay, prostate cancer cell line LNCaP (medium with 10 ng/mL IL-6); assay type: cell-based; conditions: Homo sapiens, medium supplemented with 10 ng/mL of IL-6, 10,000 cells/well
Endpoint label: IC50 (µM)

A. CS(=O)(=O)Nc1cc2cc(C(=O)Nc3cc(Cl)cc(Oc4nccs4)c3)sc2cc1Cl [Example 471]
B. CNS(=O)(=O)Nc1ccc2cc(C(=O)Nc3cc(Br)cc(-c4ccc(F)cc4F)c3)[nH]c2c1 [Example 307]
C. CS(=O)(=O)Nc1ccc2cc(C(=O)Nc3cccc(C(F)(F)c4ccncc4)c3)[nH]c2c1 [Example 388]
D. CS(=O)(=O)Nc1ccc2sc(C(=O)Nc3cc(Cl)cc(-c4cncc(Cl)n4)c3)cc2c1 [Example 339]
E. CC(C)(c1cc(Cl)cc(NC(=O)c2cc3cc(NS(C)(=O)=O)ccc3s2)c1)c1cc(OC(F)(F)F)ccc1F [Example 62]
List these items ordered by IC50, big to small. Please, when replying, give the labels in the order that was requested.
C, B, D, A, E

P. CC(C)Oc1cc(CN2CCN(c3nnc(C(C)C)o3)CC2)cc(C(C)(C)c2cc(Cl)cc(NC(=O)c3cc4cc(NS(C)(=O)=O)ccc4s3)c2)c1 [Example 135]
Q. CN(C)S(=O)(=O)N1CCN(Cc2cc(OC(F)(F)C(F)F)cc(C(C)(C)c3cc(Br)cc(NC(=O)c4cc5cc(NS(C)(=O)=O)ccc5s4)c3)c2)CC1 [Example 139]
In terms of reported IC50, does P or Q have the smaller number? Refer to your chosen entry by its label in the reply.
Q
(Q: 0.17 µM, P: 0.85 µM)
